target: human cloned somatostatin receptor 2 (human) (UniProt P30874); experiment: 125I-Tyr11-SRIF-14 displacement
Sequence (P30874 whole entry): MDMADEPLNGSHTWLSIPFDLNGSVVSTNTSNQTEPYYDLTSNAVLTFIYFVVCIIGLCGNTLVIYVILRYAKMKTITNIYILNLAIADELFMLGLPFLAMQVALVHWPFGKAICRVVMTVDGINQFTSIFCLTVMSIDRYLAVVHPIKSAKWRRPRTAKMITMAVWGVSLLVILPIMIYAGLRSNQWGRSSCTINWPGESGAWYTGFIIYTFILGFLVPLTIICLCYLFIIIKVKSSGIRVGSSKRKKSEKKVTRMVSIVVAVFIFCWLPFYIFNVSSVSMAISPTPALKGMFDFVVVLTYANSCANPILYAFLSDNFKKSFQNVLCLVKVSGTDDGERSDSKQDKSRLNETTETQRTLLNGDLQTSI
*1 amine or outer side, *2 acyl side, *3 side chain or, on linkers, in order; H or OH if unused. Bridges are numbered along the chain shown (N, C = ends). [ ]: non-standard residue; d: D form. The star is where a group is joined. DOTA = O=C(O)CN1CCN(CC(=O)O)CCN(CC(=O)*)CCN(CC(=O)O)CC1; N(2-mercaptoethyl)Gly = O=C(CN(CCS[*:3])[*:1])[*:2]; Orn = NCCC[C@H](N)C(=O)O; Aoc = NCCCCCCCC(=O)O; CPT = camptothecin; GABA = NCCCC(=O)O
reported-endpoint: % displacement at 10 nM (%)
Numbers only, in %.

{DOTA}-[dF]RCY[dW]KTF[N(2-mercaptoethyl)Gly]-NH2 (disulfide 3-9; SMILES C[C@@H](O)[C@@H]1NC(=O)[C@H](CCCCN)NC(=O)[C@@H](Cc2c[nH]c3ccccc23)NC(=O)[C@H](Cc2ccc(O)cc2)NC(=O)[C@@H](NC(=O)[C@H](CCCNC(=N)N)NC(=O)[C@@H](Cc2ccccc2)NC(=O)CN2CCN(CC(=O)O)CCN(CC(=O)O)CCN(CC(=O)O)CC2)CSSCCN(CC(N)=O)C(=O)[C@H](Cc2ccccc2)NC1=O) [SEQ ID NO: 25] = 0
{CPT-Aoc}-[dF]RCF[dW]KTF[N(2-mercaptoethyl)Gly]-NH2 (disulfide 3-9) [SEQ ID NO: 27] = 0
{DOTA-GABA}-[dF]RCF[dW]KTF[N(2-mercaptoethyl)Gly]-NH2 (disulfide 3-9; also: Ga complex of DOTA) [SEQ ID NO: 8] = 10
{DOTA}-[dF][Orn]CF[dW]KTF[N(2-mercaptoethyl)Gly]-NH2 (disulfide 3-9) [SEQ ID NO: 21] = 2
{DOTA}-F[dF]RCF[dW]KTF[N(2-mercaptoethyl)Gly]-NH2 (disulfide 4-10; SMILES C[C@@H](O)[C@@H]1NC(=O)[C@H](CCCCN)NC(=O)[C@@H](Cc2c[nH]c3ccccc23)NC(=O)[C@H](Cc2ccccc2)NC(=O)[C@@H](NC(=O)[C@H](CCCNC(=N)N)NC(=O)[C@@H](Cc2ccccc2)NC(=O)[C@H](Cc2ccccc2)NC(=O)CN2CCN(CC(=O)O)CCN(CC(=O)O)CCN(CC(=O)O)CC2)CSSCCN(CC(N)=O)C(=O)[C@H](Cc2ccccc2)NC1=O) [SEQ ID NO: 20] = 2

Okay, next one:
% displacement at 10 nM in this record for {DOTA}-[dF]E[Orn]CF[dW]KTF[N(2-mercaptoethyl)Gly]-NH2 (disulfide 4-10; SMILES C[C@@H](O)[C@@H]1NC(=O)[C@H](CCCCN)NC(=O)[C@@H](Cc2c[nH]c3ccccc23)NC(=O)[C@H](Cc2ccccc2)NC(=O)[C@@H](NC(=O)[C@H](CCCN)NC(=O)[C@H](CCC(=O)O)NC(=O)[C@@H](Cc2ccccc2)NC(=O)CN2CCN(CC(=O)O)CCN(CC(=O)O)CCN(CC(=O)O)CC2)CSSCCN(CC(N)=O)C(=O)[C@H](Cc2ccccc2)NC1=O) [SEQ ID NO: 23] : 0
